Test: drug combination growth inhibition, ovarian cancer – cell-based, oncology-focused library, rucaparib conditional, profiling panel (AID 1508598)
Conditions: patient-derived ovarian cancer cells, CellTiter-Glo viability, 144 h; at 0.0195 µM; OCI-P5x cells; with rucaparib 20 µM; 100% = cells with rucaparib alone
Active and inactive are the calls of the source.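 Rule for the calls: active = normalized viability below 100% at a tested concentration; inactive = the rest.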
In this exercise, the only acceptable responses are active, inactive

# count of solved cases: 5
Status in this test for "O=C(NCC1(c2nc(-c3ccccc3)cs2)CCOCC1)c1cccc(-c2noc(C(F)(F)F)n2)c1" ?
active

Field entry: "CCCc1ccc(OCC(=O)N(Cc2nc(-c3cccnc3)no2)C(C)C)cc1"
active

Field entry: "COC1=C2C[C@H](C)C[C@@H](OC)[C@H](O)[C@H](C)/C=C(\C)[C@H](OC(N)=O)[C@@H](OC)/C=C/C=C(\C)C(=O)NC(=CC1=O)C2=O"
active

Field entry: "C[C@H](O[C@H]1OCCN(Cc2n[nH]c(=O)[nH]2)[C@H]1c1ccc(F)cc1)c1cc(C(F)(F)F)cc(C(F)(F)F)c1"
inactive

Field entry: "NC(=O)CCCSc1nc(N)nc(-c2c(Cl)cc3c4c(cccc24)COC3)n1"
inactive

Further cases:
Status in this test for "COc1cccc2c1C(=O)c1c(O)c3c(c(O)c1C2=O)C[C@@](O)(C(=O)CO)C[C@H]3O[C@H]1C[C@H](N)[C@@H](O)[C@H](C)O1" ?
active

Field entry: "Cc1cc(NC(=O)c2cccc(NC(=O)/C=C/CN(C)C)c2)ccc1Nc1nccc(-c2cccnc2)n1"
inactive

Field entry: "COc1ccccc1-c1cc(Nc2cccc(CS(N)(=O)=O)c2)ncn1"
inactive

====

Assay: MELAS cybrid and Rieske KO viability enhancers – cell-based, MELAS cybrids, Rieske KO mouse fibroblasts, CellTiter-Glo, primary screen (AID 1508586);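 note: z relative to plate mean and SD of compound and empty wells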
Details: MELAS cybrid survival, low glucose, CellTiter-Glo 48 h; stronger effect = higher value
Let's look at some compounds and their measured z-score.
Answer as a number with no unit attached.

The following compounds have reported results that may help.
Which z-score reading was recorded for the compound CCC(C)C(=O)OC1CCC=C2C=CC(C)C(CCC3CC(O)CC(=O)O3)[C@H]21 (stereo partly drawn) ?
-0.482

Field entry: Cn1c2c(cc(-c3ccc(OC(F)(F)F)cc3)c1=O)CN(C(=O)C1CC(=O)c3ccccc31)CC2 (stereo not drawn)
0.0877

Field entry: "COc1cccc(-c2cccc(N)n2)c1F"
0.104

Field entry: C#CCC(c1nc2cc(Cl)ccc2c(=O)n1Nc1ccccc1)N(CCCN)C(=O)c1cccc(Cl)c1F (stereo not drawn)
1.61

Field entry: "CC(C)CNC(=O)[C@@H]1C[C@H](CN2CCOCC2)CN(Cc2ccncc2)C1"
-0.456

Field entry: CC(=O)O[C@H]1C[C@@]2(C)[C@@H](C[C@@H](O)[C@H]3[C@@]4(C)CC[C@@H](O)[C@@H](C)C4CC[C@@]32C)/C1=C(\CCC=C(C)C)C(=O)O (stereo partly drawn)
-3.27

Further cases:
Which z-score reading was recorded for the compound "CC(C)C[C@H](NC(=O)[C@@H](COC(C)(C)C)NC(=O)[C@H](Cc1ccc(O)cc1)NC(=O)[C@H](CO)NC(=O)[C@H](Cc1c[nH]c2ccccc12)NC(=O)[C@H](Cc1cnc[nH]1)NC(=O)[C@@H]1CCC(=O)N1)C(=O)N[C@@H](CCCN=C(N)N)C(=O)N1CCC[C@H]1C(=O)NNC(N)=O" ?
-0.533

Field entry: "C=CCn1cc(-c2nc3c([nH]2)c(-c2cccnc2)nn3C)c(C)n1"
-1.29

Field entry: "CC(C)(C)c1cn(C2CCN(C(=O)c3cnc4ccccc4n3)CC2)nn1"
0.15

Field entry: "COc1cc(Cn2cnc3nccnc3c2=O)cc(OC)c1"
-0.417

Field entry: "O=C(O)CSc1nnc(-c2ccc([N+](=O)[O-])o2)o1"
-1.16

Field entry: COc1ccc(CC(NC(=O)C(C)NC(=O)CN2CCOCC2)C(=O)NC(Cc2ccccc2)C(=O)[C@]2(C)CO2)cc1 (stereo partly drawn)
-0.544

Field entry: "CCNC(=O)c1noc(-c2cc(Cl)c(O)cc2O)c1-c1ccc(OC)cc1"
2.58

====

Experiment: viability loss with induced miR-34 in A549 – imaging, A549 dox-inducible miR-34, nuclei and caspase counts, primary screen (AID 1347080)
Settings: A549 miR-34 inducible, Hoechst nuclei count, 48 h; stronger effect = lower value; cell number ratio, induced over uninduced
Let's look at some molecules and their measured fold change.
Answer as a number with no unit attached.

Which fold change reading was recorded for the molecule "CC(O)=C(C#N)C(=O)Nc1ccc(C(F)(F)F)cc1" ?
0.904

Further cases:
Which fold change reading was recorded for the molecule "COc1ccc(OC)c2c1c(C)cc(=O)n2C" ?
0.823

Field entry: CN1C2CCC1CC(OC(=O)C(O)c1ccccc1)C2 (stereo not drawn)
1.02

Field entry: CC1=C(C(=O)O)N2C(=O)C(NC(=O)C(N)c3ccccc3)[C@@H]2SC1 (stereo partly drawn)
0.987

Field entry: "Nc1[nH]c(=O)[nH]c(=O)c1N"
0.894

Field entry: "CN(CC(=O)N(Cc1ccc(C2CCCCC2)cc1)c1ccc(C(=O)O)cc1)S(=O)(=O)c1c(F)c(F)c(F)c(F)c1F"
0.95

Field entry: "COc1ccc(-c2cc3ncc(C)n3c(Nc3ncccc3C(N)=O)n2)cc1OC"
0.944

Field entry: "NC(=O)NN=Cc1ccc([N+](=O)[O-])o1"
0.88

Field entry: CC1OC(OC2C(Oc3cc(O)c4c(c3)OC(c3ccc(O)cc3)CC4=O)OC(CO)C(O)C2O)C(O)C(O)C1O (stereo not drawn)
1

Field entry: "COC1=C(OC)C(=O)c2ccccc2C1=O"
1.45

Field entry: Cc1ccc(C(=O)N(CCCN)C(c2nc3cc(Cl)ccc3c(=O)n2Cc2ccccc2)C(C)C)cc1 (stereo not drawn)
0.993

Field entry: "Nc1nc(-c2ccc(O)cc2)cs1"
0.871

====

Assay: growth inhibition, single agent or in combination, cell-based, chromothripsis tumors, cisplatin or BGB combos (AID 1671449);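 note: cells exposed for 96 hours; 0% = vehicle DMSO and 100% = killing by high DMSO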
Conditions: LFS_MB_P medulloblastoma cells, measured here: combination with BGB IC40, at 0.05 µM
Measurement name: inhibition

Which inhibition reading was recorded for the molecule NC(=O)c1cccc2cn(-c3ccc(C4CCCNC4)cc3)nc12 (configuration not stated) ?
-6.95%

Further cases:
Which inhibition reading was recorded for the molecule "C[C@@H]1O[C@@H](O[C@@H]2[C@@H](O)[C@H](OCCc3ccc(O)c(O)c3)O[C@H](CO)[C@H]2OC(=O)C=Cc2ccc(O)c(O)c2)[C@H](O)[C@H](O)[C@H]1O" ?
-17.9%

Field entry: O=c1[nH]c(=O)n(C2CC(O)C(CO)O2)cc1I (configuration not stated)
12.9%

Field entry: CC(C)OC(=O)[C@H](C)NP(=O)(OC[C@H]1O[C@@H](n2ccc(=O)[nH]c2=O)C(C)(F)[C@@H]1O)Oc1ccccc1 (some centres not stated)
0.698%

Field entry: "C=C1C(=O)O[C@@H]2C=C(C)CCC=C(C)CC[C@@H]12"
7.16%

Field entry: "COc1nc(N)nc2c1ncn2[C@@H]1O[C@H](CO)[C@@H](O)[C@H]1O"
-38.6%

Field entry: "CO[C@H]1/C=C/O[C@@]2(C)Oc3c(C)c(O)c4c(O)c(c5c(c4c3C2=O)=NC2(CCN(CC(C)C)CC2)N=5)NC(=O)/C(C)=C\C=C\[C@H](C)[C@H](O)[C@@H](C)[C@@H](O)[C@@H](C)[C@H](OC(C)=O)[C@@H]1C"
-18.6%

====

Experiment: galactose survival enhancers in mitochondrial complex I cybrids – cell-based, galactose medium, ATP luminescence, primary screen (AID 1645843);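 note: positive z means more ATP and so rescue of galactose-driven cybrid death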
Conditions: complex I mutant cybrid cells, 72 h, stronger effect = higher value
Tick condition met if z-score is 0.2 or greater. Tick condition not met if z-score is less than 0.2.

# check: z-score of "C[C@H](O)C(=O)C1=Nc2c(nc(N)[nH]c2=O)NC1" is greater than or equal to 0.2
condition met

Field entry: "Cc1cc(C(=O)N2CCc3[nH]nc(COc4ccccc4)c3C2)c(C)o1"
condition not met

Field entry: "COC(=O)CCC1CCN(C(=O)CCC(C)C)CC1"
condition not met

Field entry: "COc1ccc(CN[C@@H]2CS(=O)(=O)C[C@H]2O)cc1OCc1ccc(F)cc1"
condition not met

Further cases:
# check: z-score of "CC(=O)/C=C1\C(=O)N(C)c2ccccc21" is greater than or equal to 0.2
condition not met

Field entry: CCC1(CC)CC1C(=O)N1CCC(n2cc(C3CCCCC3)nn2)CC1 (stereo not drawn)
condition not met

Field entry: "Cc1ccn2cc(C(=O)N(CC(C)C)CC(C)C)nc2c1"
condition not met

====

Let's look at some molecules and their measured z-score.
Test: galactose survival enhancers in mitochondrial complex I cybrids – cell-based, galactose medium, ATP luminescence, primary screen (AID 1645843);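 note: positive z means more ATP and so rescue of galactose-driven cybrid death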
Settings: complex I mutant cybrid cells, 72 h, stronger effect = higher value
Answer as a number with no unit attached.

The following molecules have reported results that may help.
Which z-score reading was recorded for the molecule O=C(O)C1CN(CCCP(=O)(O)O)CCN1 (stereo unspecified) ?
0.45

Field entry: "O=c1ccn([C@@H]2O[C@H](COP(=O)(O)OP(=O)(O)O)[C@@H](O)[C@H]2O)c(=O)[nH]1"
0.745

Field entry: CC(CCCC(C)(C)O)CCNCC1CCN(c2ccccc2)C1 (stereo unspecified)
-0.605

Field entry: "CNc1ccnc(-c2cnn(CC(=O)Nc3cc(C)nn3C)c2)n1"
-0.515

Field entry: O=C1NCC(=O)N2CCCC12 (stereo unspecified)
0.315

Further cases:
Which z-score reading was recorded for the molecule Cn1c2c(cc(-c3ccc(OC(F)(F)F)cc3)c1=O)CN(C(=O)C1CC(=O)c3ccccc31)CC2 (stereo unspecified) ?
0.305

Field entry: "CCCCNC(=O)[C@@H]1C[C@H](CN2CCOCC2)CN(Cc2ccc3ccccc3c2)C1"
-0.385

Field entry: COc1cc(N(C)CC2COc3ccccc3O2)nc(N)n1 (stereo unspecified)
-0.58

Field entry: "CC[C@H](C)C(=O)O[C@H]1C[C@H](O)C=C2C=C[C@H](C)[C@H](CC[C@@H]3C[C@@H](O)CC(=O)O3)[C@H]21"
0.555

Field entry: "O=C(O)c1cc(=O)cc(C(=O)O)[nH]1"
0.285

Field entry: CC(CCCC(C)(C)O)CCN1CCC(N(C)CCO)CC1 (stereo unspecified)
-0.505

Field entry: "CCn1ncc(NC(=O)Cn2cc(-c3cccc(-n4cccn4)c3)cn2)n1"
-0.505

Field entry: "CCCC[C@@H]1C[C@@H]1C(=O)N1CCC(n2cc(CC(C)C)nn2)CC1"
-0.07

Field entry: "CCCn1nc(NC(=O)Cn2ccc(-c3ccccc3F)n2)c2ccccc21"
-1.28

Field entry: "Cn1c(=O)c2c(nc(/C=C/c3cccc(Cl)c3)n2C)n(C)c1=O"
1.26

Field entry: "CC1=C(C(=O)N2CCc3c(c(C(=O)NCc4nccs4)nn3Cc3ccccc3)C2)OCCO1"
0.605

Field entry: "O=C(c1ccnc(Cl)c1)N1CCc2[nH]nc(C3CCC3)c2C1"
-0.4

Field entry: "Cn1cc(-c2cc(C(=O)N3CCc4ccccc4C3)c3cc(F)ccc3n2)cn1"
1

Field entry: C[C@H](Cc1ccccc1)Nc1ncnc2c1ncn2[C@@H]1O[C@H](CO)[C@H](O)C1O (stereo partly specified)
1.45

Field entry: "CCN(CC)C(=O)c1cc(-c2cnc(C(C)C)nc2)nc2c(C)cccc12"
-1.09

Field entry: CCCn1nc(C(=O)N2CCCCC2)c2c1CCC(NCc1cccnc1)C2 (stereo unspecified)
-1.06
